# Tested on: CCRF-CEM
# Experiment Notes: NCI tumour cell line growth inhibition, 48 h
Activity calls are given as the source filed them. Rule as the data show it: active = GI50 up to about 1.1 µM and inactive = higher.
Classes used: t (active), f (inactive)

Compound: C=C1c2nc3ccccc3n2C=C(c2ccc(Cl)cc2)N1c1ccccc1
Cat: f
//
Compound: O=C(CCc1ccc(O)c(O)c1)NCCc1cc(O)cc(OCc2ccccc2)c1
Cat: f
//
Compound: Cc1c(-c2ccccc2)c(-c2ccc(OCCN(C)C)cc2)n2ccccc12
Cat: f
//
Compound: Cc1cc(=O)oc2cc(OCc3nc4ccccc4c(=O)n3-c3ccccc3)ccc12
Cat: f
//
Compound: C/N=C/N(C)c1c2ccccc2nc2ccccc12
Cat: f
//
Compound: CC(=O)OC1CC(O)CC2=CCC3C4CCC(C(C)(O)C(O)CC5COC(=O)C5C)C4(C)CCC3C21C (stereo not given)
Cat: f
//
Compound: C[C@@H](NC1CCC[C@H]1O)c1ccccc1 (stereo not given in full)
Cat: f
//
Compound: C[Si](C)(c1ccccc1)[C@H]1CCCC=C1CCNC1c2ccccc2CCc2ccccc21
Cat: t
//
Compound: Cn1ccc(C(=O)N2CCSC2=S)c(OCc2ccccc2)c1=O
Cat: f
//
Compound: COC1=C(OC)C(=O)C(Sc2ccc3ccccc3c2)=CC1=O
Cat: f
